Data credit: patent US5733913A

- Experimental Target: human FGF-1 (flg) receptor tyrosine kinase (Homo sapiens)
- Construct: a fragment of DNA that codes for the intracellular tyrosine kinase domain
- Sequence (P11362 478-767 limits assumed): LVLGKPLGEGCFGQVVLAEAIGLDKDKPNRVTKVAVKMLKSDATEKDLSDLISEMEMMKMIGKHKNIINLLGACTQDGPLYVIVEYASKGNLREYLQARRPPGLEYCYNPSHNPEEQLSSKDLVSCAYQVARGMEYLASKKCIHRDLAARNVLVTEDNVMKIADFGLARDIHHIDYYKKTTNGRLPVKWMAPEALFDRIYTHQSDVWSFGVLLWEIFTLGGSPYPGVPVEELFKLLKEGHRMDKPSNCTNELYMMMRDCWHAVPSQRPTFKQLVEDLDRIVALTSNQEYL
- Assay Info: FGF receptor tyrosine kinase assay
- Study Conditions: read-out: Inhibition of Protein Tyrosine Kinases, FGF, IC50
Parameter Measured: IC50 (nM)
The figure you give is taken to be in nM; do not add the unit.

Field: example entries. Status: answers known.
                           substance_smiles  parameter_measured  unit_of_measurement  readout_number
0  CCNC(=O)Nc1nc2nc(NCCCN(CC)CC)ncc2cc1-c1c(Cl)cccc1Cl                IC50                   nM             128
1  CCNC(=O)Nc1nc2nc(NCCCN3CCN(C)CC3)ncc2cc1-c1c(Cl)cccc1Cl                IC50                   nM            53.5
2       Nc1ncc2cc(-c3c(Cl)cccc3Br)c(N)nc2n1                IC50                   nM            5320
3  CN(C)CCCNc1ncc2cc(-c3c(Cl)cccc3Cl)c(NC(=O)NC(C)(C)C)nc2n1                IC50                   nM              75
4  CC(C)(C)NC(=O)Nc1nc2nc(N)ncc2cc1-c1ccccc1                IC50                   nM            3710
5  CCCCCCCCNC(=O)Nc1nc2nc(NCCCN3CCN(C)CC3)ncc2cc1-c1c(Cl)cccc1Cl                IC50                   nM             637
6      Cc1cc(C)c(-c2cc3cnc(N)nc3nc2N)c(C)c1                IC50                   nM            3840
7  CCNC(=O)Nc1nc2nc(NCCCN(CC)CC)ncc2cc1-c1c(C)cccc1C                IC50                   nM            1240

Give IC50 for the following compound: Nc1nc2nc(NCCCN3CCOCC3)ncc2cc1-c1c(Cl)cccc1Cl 3460

Give IC50 for the following compound: CC(C)(C)NC(=O)Nc1nc2nc(N)ncc2cc1-c1c(Cl)ccc(Cl)c1Cl 114

Give IC50 for the following compound: Cc1cc(C)c(C)c(-c2cc3cnc(NCCCN4CCN(C)CC4)nc3nc2NC(=O)NC(C)(C)C)c1C 142

Give IC50 for the following compound: CN(C)C=Nc1ncc2cc(-c3c(Cl)cccc3Cl)c(NC(=O)NC(C)(C)C)nc2n1 8090

Give IC50 for the following compound: CC(C)(C)NC(=O)Nc1nc2nc(N)ncc2cc1-c1cccc(Cl)c1Cl 162
